The reader will find IC50 measurements below, all made with JNK3 (Homo sapiens, UniProt P53779).
Sequence (P53779 whole entry, species assumed): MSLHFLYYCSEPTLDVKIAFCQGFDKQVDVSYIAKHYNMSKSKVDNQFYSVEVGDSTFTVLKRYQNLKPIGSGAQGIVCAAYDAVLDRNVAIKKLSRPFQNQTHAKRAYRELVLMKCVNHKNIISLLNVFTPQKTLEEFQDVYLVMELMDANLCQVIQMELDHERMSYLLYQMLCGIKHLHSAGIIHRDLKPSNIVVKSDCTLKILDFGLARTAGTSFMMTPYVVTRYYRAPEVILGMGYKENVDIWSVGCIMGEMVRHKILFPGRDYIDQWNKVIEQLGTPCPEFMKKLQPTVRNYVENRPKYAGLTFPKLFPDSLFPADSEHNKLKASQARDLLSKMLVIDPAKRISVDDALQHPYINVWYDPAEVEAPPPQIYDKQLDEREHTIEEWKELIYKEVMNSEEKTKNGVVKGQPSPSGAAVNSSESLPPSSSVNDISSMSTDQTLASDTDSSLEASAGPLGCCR
Readout label: IC50 (nM)

c1ncc(-c2c[nH]c3ncc([C@H]4CC[C@H](N5CCOCC5)CC4)cc23)s1 [Compound I-60] : 110
CN1CCC(c2nc(-c3c[nH]c4ncc(C5=CCC(N6CCCOCC6)CC5)cc34)cs2)CC1 (stereo not shown) [Compound I-101] : 363

* * *

pIC50: −log10 of the molar value.
The reader will find pIC50 measurements below, all made with JNK3 (Homo sapiens, UniProt P53779).
Readout label: pIC50

c1csc(-c2c[nH]c3ncc([C@H]4CC[C@@H](N5CCOCC5)CC4)cc23)n1 [Compound I-90] : 5.88
CN1CCC(c2nc(-c3c[nH]c4ncc(C5CCCCC5)cc34)cs2)CC1 [Compound I-11] : 6.62
c1nc(-c2c[nH]c3ncc([C@H]4CC[C@H](N5CCOCC5)CC4)cc23)cs1 [Compound I-59] : 6.09
CN1CCC(c2nc(-c3c[nH]c4ncc([C@H]5CC[C@H](N6CCOCC6)CC5)cc34)cs2)CC1 [Compound I-94] : 6.16
Cc1csc(-c2c[nH]c3ncc([C@H]4CC[C@H](N5CCOCC5)CC4)cc23)n1 [Compound I-61] : 6.24
CN1CCC(c2csc(-c3c[nH]c4ncc([C@H]5CC[C@H](N6CCOCC6)CC5)cc34)n2)CC1 [Compound I-78] : 6.53

* * *

The reader will find pIC50 measurements below, all made with JNK3 (Homo sapiens, UniProt P53779).
pIC50: −log10 of the molar value.
Readout label: pIC50

CN1CCCC1c1nc(-c2c[nH]c3ncc([C@H]4CC[C@@H](N5CCOCC5)CC4)cc23)cs1 (stereo partly drawn) [Compound I-108] : 5.91
FC(F)(F)c1csc(-c2c[nH]c3ncc([C@H]4CC[C@@H](N5CCOCC5)CC4)cc23)n1 [Compound I-70] : 5.96
CN1CCCC1c1nc(-c2c[nH]c3ncc([C@H]4CC[C@@H](N5CCCOCC5)CC4)cc23)cs1 (stereo partly drawn) [Compound I-114] : 5.84
